target: Serine/threonine-protein kinase B-raf (Homo sapiens, UniProt P15056, V600E); assay: Inhibition of […] N-terminal GST-tagged human BRAF V599E mutant (416 to 766 residues) expressed in baculovirus expression system using Ser/Thr 03 as substrate after 1 hr in presence of ATP by Z'-LYTE assay
pIC50: −log10 of the molar value.
Readout Type: pIC50

Lab note: C[C@@H]1C[C@H]1C(=O)N1CCN(c2cnc(C#N)c(-c3cnn(C)c3)n2)C[C@H]1C gave pIC50 of < 4.00

----------
target: Epidermal growth factor receptor (Homo sapiens, UniProt P00533, L861Q); experiment: Inhibition of human recombinant GST-tagged EGFR L861Q mutant cytoplasmic domain expressed in baculovirus expression system using tyrosine 4 peptide as substrate after 60 mins in presence of ATP FRET based Z'-LYTE assay
Sequence (P00533 25-1210 L861Q limits assumed): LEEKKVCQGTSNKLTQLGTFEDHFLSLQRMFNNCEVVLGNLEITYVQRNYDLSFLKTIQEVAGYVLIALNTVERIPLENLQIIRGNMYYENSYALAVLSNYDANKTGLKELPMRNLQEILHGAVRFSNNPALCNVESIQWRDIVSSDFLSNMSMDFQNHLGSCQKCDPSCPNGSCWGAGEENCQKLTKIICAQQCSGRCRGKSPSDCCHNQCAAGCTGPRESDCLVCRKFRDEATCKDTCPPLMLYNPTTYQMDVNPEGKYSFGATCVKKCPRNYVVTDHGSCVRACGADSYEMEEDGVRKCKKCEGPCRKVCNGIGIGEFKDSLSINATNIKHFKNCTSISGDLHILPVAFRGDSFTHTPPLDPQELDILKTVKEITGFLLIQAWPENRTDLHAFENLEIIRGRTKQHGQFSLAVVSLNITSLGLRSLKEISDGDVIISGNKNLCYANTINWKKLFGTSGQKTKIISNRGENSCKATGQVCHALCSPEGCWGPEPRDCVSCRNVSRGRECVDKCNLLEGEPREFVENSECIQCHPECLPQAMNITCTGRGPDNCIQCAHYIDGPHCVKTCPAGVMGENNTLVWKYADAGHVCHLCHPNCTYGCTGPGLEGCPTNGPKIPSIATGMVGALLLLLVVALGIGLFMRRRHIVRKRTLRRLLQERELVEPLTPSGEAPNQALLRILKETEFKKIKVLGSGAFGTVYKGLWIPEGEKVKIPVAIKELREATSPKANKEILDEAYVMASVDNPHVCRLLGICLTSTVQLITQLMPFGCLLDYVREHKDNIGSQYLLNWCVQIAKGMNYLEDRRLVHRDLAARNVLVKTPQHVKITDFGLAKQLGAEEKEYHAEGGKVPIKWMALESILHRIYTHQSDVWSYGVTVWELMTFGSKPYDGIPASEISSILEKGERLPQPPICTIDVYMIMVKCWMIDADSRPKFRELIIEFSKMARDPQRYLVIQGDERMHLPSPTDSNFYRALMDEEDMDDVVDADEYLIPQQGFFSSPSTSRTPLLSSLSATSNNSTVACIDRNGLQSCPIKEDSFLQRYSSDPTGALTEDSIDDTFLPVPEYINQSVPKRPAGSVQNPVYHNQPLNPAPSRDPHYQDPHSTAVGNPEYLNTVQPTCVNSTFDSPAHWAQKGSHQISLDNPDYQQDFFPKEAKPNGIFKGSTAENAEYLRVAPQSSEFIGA
Readout Type: IC50

Record C[C@@H]1C[C@H]1C(=O)N1CCN(c2cnc(C#N)c(-c3cnn(C)c3)n2)C[C@H]1C . Reported IC50: > 100 µM

----------
target: CDK2/Cyclin A2 (Homo sapiens, UniProt P24941); assay: Inhibition of recombinant full length human His-tagged CDK2/Cyclin A expressed in baculovirus expression system using serine/threonine-12 peptide as substrate incubated for 60 mins in presence of ATP by Z'-LYTE assay
pIC50: −log10 of the molar value.
Readout Type: pIC50

# pIC50 (compound: C[C@@H]1C[C@H]1C(=O)N1CCN(c2cnc(C#N)c(-c3cnn(C)c3)n2)C[C@H]1C ) is < 4.00

----------
molecular target: Tyrosine-protein kinase ABL1 (Homo sapiens, UniProt P00519, T315I); test: Inhibition of recombinant full length human His-tagged ABL1 T315I mutant cytoplasmic domain expressed in baculovirus expression system using tyrosine-2 peptide as substrate incubated for 60 mins in presence of ATP by Z'-LYTE assay
pIC50: −log10 of the molar value.
Readout Type: pIC50

The molecule C[C@@H]1C[C@H]1C(=O)N1CCN(c2cnc(C#N)c(-c3cnn(C)c3)n2)C[C@H]1C on Tyrosine-protein kinase ABL1 (Homo sapiens, UniProt P00519, T315I): pIC50 was < 4.00

----------
Target: Serine/threonine-protein kinase Sgk3 (Homo sapiens, UniProt Q96BR1)
Sequence (Q96BR1 whole entry): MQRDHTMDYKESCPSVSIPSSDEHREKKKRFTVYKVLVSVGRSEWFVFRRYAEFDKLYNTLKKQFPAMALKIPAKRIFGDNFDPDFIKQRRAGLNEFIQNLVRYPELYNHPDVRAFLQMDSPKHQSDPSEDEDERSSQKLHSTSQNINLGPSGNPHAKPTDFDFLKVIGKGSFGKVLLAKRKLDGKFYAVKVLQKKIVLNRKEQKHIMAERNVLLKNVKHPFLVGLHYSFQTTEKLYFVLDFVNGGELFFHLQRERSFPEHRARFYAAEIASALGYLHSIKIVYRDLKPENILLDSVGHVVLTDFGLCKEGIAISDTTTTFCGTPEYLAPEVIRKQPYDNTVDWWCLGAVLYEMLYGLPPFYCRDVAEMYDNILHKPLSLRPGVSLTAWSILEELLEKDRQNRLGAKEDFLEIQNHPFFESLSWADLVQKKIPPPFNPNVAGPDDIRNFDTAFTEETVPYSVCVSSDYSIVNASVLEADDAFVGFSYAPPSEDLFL
Assay: Inhibition of recombinant human GST-tagged SGK3 catalytic domain (87 to 496 residues) expressed in baculovirus expression system using serine/threonine-6 peptide as substrate incubated for 60 mins in presence of ATP by Z'-LYTE assay
pIC50: −log10 of the molar value.
Readout Type: pIC50

Measured pIC50, C[C@@H]1C[C@H]1C(=O)N1CCN(c2cnc(C#N)c(-c3cnn(C)c3)n2)C[C@H]1C : < 4.00

----------
target: Dual specificity tyrosine-phosphorylation-regulated kinase 4 (Homo sapiens); assay: Inhibition of recombinant full length human GST-tagged DYRK4 expressed in baculovirus expression system using serine/threonine-9 peptide as substrate incubated for 60 mins in presence of ATP by Z'-LYTE assay
Sequence (Q9NR20 whole entry): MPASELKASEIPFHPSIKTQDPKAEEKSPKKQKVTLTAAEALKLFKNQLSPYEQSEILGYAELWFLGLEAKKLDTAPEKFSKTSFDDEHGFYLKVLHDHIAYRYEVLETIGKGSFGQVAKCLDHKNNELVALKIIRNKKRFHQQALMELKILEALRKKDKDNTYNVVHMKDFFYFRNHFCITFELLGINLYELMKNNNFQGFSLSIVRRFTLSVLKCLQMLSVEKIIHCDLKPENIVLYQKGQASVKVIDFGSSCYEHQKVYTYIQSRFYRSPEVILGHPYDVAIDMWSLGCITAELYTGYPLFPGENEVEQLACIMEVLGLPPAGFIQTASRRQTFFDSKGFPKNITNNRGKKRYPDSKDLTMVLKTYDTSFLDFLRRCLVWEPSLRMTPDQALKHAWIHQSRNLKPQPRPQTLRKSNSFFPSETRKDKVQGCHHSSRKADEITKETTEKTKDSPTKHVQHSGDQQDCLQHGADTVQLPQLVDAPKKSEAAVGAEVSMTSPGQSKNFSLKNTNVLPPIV
pIC50: −log10 of the molar value.
Readout Type: pIC50

Record C[C@@H]1C[C@H]1C(=O)N1CCN(c2cnc(C#N)c(-c3cnn(C)c3)n2)C[C@H]1C . Reported pIC50: < 4.00

----------
biological target: Mitogen-activated protein kinase 8 (Homo sapiens); experiment: Inhibition of recombinant full length human His-tagged JNK1alpha1 expressed in baculovirus expression system using serine/threonine-4 peptide as substrate incubated for 60 mins in presence of ATP by Z'-LYTE assay
Sequence (P45983 whole entry): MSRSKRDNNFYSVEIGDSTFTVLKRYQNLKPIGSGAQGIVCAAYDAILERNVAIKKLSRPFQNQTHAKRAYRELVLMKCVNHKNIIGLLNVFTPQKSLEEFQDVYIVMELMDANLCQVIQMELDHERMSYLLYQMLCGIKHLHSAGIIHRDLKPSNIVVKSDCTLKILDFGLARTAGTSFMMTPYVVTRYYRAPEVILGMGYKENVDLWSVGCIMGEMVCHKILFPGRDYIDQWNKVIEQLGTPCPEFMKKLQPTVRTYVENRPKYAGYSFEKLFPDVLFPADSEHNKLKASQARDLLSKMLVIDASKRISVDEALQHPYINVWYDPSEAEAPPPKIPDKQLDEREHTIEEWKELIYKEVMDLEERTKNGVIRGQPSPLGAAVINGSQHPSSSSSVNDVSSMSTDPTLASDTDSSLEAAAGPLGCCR
pIC50: −log10 of the molar value.
Readout Type: pIC50

Mitogen-activated protein kinase 8 (Homo sapiens) assay, molecule C[C@@H]1C[C@H]1C(=O)N1CCN(c2cnc(C#N)c(-c3cnn(C)c3)n2)C[C@H]1C , recorded pIC50 = < 4.00

----------
target: Mitogen-activated protein kinase 3 (Homo sapiens, UniProt P27361); test: Inhibition of recombinant full length human GST-tagged ERK1 expressed in Escherichia coli using fluorophore-labeled serine/threonine-3 peptide as substrate incubated for 60 mins in presence of ATP by Z'-LYTE assay
pIC50: −log10 of the molar value.
Readout Type: pIC50

For reference, reported pIC50 for C[C@@H]1C[C@H]1C(=O)N1CCN(c2cnc(C#N)c(-c3cnn(C)c3)n2)C[C@H]1C stands at < 4.00

----------
biological target: Casein kinase I isoform alpha (Homo sapiens, UniProt P48729); assay: Inhibition of recombinant full length human GST-tagged CSNK1A1 expressed in baculovirus expression system using fluorophore-labeled serine/threonine-11 peptide as substrate incubated for 60 mins in presence of ATP by Z'-LYTE assay
Readout Type: IC50

IC50 value, target or system Casein kinase I isoform alpha (Homo sapiens, UniProt P48729), for C[C@@H]1C[C@H]1C(=O)N1CCN(c2cnc(C#N)c(-c3cnn(C)c3)n2)C[C@H]1C : > 100 µM

----------
target: Protein kinase C gamma type (Homo sapiens); assay: Inhibition of recombinant full length human GST-tagged PRKCG expressed in insect expression system using serine/threonine-7 peptide as substrate incubated for 60 mins in presence of ATP by Z'-LYTE assay
Readout Type: IC50

Measured IC50, C[C@@H]1C[C@H]1C(=O)N1CCN(c2cnc(C#N)c(-c3cnn(C)c3)n2)C[C@H]1C : > 100 µM

----------
biological target: Tyrosine-protein kinase CSK (Homo sapiens, UniProt P41240); test: Inhibition of recombinant full length human His-tagged CSK expressed in Escherichia coli expression system using tyrosine-2 peptide as substrate incubated for 60 mins in presence of ATP by Z'-LYTE assay
Sequence (P41240 whole entry): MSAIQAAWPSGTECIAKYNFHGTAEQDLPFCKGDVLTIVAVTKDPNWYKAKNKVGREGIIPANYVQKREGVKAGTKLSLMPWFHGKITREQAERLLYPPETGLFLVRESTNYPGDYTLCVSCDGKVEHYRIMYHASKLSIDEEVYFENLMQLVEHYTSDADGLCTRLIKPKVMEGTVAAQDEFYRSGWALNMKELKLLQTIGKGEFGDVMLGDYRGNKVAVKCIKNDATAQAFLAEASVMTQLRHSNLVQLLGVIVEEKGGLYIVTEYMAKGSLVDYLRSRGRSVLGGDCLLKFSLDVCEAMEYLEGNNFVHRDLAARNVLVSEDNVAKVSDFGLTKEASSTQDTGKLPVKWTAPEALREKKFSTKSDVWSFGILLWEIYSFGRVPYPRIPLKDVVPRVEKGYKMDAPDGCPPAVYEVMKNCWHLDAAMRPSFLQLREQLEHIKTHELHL
Readout Type: IC50

The reported value for C[C@@H]1C[C@H]1C(=O)N1CCN(c2cnc(C#N)c(-c3cnn(C)c3)n2)C[C@H]1C in terms of IC50 is > 100 µM

----------
Target: Dual specificity tyrosine-phosphorylation-regulated kinase 3 (Homo sapiens, UniProt O43781)
Sequence (O43781 whole entry): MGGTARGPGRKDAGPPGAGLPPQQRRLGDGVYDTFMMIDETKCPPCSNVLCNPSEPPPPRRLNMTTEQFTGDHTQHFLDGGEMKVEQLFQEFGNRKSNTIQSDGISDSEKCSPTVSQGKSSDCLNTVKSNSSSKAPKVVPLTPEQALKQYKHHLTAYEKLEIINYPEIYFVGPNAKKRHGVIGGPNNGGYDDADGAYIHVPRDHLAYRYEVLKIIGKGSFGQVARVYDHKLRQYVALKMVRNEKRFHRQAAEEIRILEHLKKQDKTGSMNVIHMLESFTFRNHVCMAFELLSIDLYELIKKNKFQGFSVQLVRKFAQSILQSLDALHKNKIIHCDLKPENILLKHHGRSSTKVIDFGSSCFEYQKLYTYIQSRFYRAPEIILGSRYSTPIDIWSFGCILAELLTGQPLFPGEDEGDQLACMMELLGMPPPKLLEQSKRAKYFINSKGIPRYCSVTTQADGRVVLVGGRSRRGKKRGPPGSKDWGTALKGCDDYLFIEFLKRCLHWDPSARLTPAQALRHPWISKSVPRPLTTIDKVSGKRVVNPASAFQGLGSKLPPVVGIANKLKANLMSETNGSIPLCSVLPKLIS
Assay: Inhibition of recombinant full length human GST-tagged DYRK3 expressed in baculovirus expression system using serine/threonine-9 peptide as substrate incubated for 60 mins in presence of ATP by Z'-LYTE assay
pIC50: −log10 of the molar value.
Readout Type: pIC50

The recorded pIC50 for C[C@@H]1C[C@H]1C(=O)N1CCN(c2cnc(C#N)c(-c3cnn(C)c3)n2)C[C@H]1C is < 4.00

----------
biological target: Calcium/calmodulin-dependent protein kinase type II subunit beta (Homo sapiens); experiment: Inhibition of recombinant full length human His-tagged CAMK2beta expressed in baculovirus expression system using serine/threonine-17 peptide as substrate incubated for 60 mins in presence of ATP by Z'-LYTE assay
Sequence (Q13554 whole entry): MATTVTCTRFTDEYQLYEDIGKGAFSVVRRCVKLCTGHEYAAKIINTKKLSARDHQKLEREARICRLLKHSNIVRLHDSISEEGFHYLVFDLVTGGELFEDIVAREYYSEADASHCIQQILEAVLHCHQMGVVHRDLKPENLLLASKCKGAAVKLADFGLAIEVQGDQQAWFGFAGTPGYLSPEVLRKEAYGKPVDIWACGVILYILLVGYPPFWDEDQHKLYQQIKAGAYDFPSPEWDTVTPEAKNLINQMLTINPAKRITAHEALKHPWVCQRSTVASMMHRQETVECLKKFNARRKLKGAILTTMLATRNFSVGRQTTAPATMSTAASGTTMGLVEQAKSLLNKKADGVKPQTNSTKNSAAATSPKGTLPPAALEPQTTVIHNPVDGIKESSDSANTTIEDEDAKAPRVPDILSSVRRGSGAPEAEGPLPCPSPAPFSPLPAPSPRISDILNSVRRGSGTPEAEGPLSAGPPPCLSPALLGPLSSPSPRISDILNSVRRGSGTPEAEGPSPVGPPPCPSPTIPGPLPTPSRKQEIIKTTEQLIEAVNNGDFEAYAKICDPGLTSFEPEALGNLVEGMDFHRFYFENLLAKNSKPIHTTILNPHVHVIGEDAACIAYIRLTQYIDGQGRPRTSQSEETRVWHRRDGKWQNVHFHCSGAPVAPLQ
Readout Type: IC50

Item: C[C@@H]1C[C@H]1C(=O)N1CCN(c2cnc(C#N)c(-c3cnn(C)c3)n2)C[C@H]1C | System: Calcium/calmodulin-dependent protein kinase type II subunit beta (Homo sapiens) | IC50: > 100 µM

----------
target: Phosphatidylinositol 4-phosphate 3-kinase C2 domain-containing subunit beta (Homo sapiens); experiment: Inhibition of recombinant GST-tagged human PIK3C2B catalytic domain expressed in baculovirus expression system using PI as substrate after 1 hr in presence of ATP by Adapta assay
Sequence (O00750 whole entry, the tested form may be a part): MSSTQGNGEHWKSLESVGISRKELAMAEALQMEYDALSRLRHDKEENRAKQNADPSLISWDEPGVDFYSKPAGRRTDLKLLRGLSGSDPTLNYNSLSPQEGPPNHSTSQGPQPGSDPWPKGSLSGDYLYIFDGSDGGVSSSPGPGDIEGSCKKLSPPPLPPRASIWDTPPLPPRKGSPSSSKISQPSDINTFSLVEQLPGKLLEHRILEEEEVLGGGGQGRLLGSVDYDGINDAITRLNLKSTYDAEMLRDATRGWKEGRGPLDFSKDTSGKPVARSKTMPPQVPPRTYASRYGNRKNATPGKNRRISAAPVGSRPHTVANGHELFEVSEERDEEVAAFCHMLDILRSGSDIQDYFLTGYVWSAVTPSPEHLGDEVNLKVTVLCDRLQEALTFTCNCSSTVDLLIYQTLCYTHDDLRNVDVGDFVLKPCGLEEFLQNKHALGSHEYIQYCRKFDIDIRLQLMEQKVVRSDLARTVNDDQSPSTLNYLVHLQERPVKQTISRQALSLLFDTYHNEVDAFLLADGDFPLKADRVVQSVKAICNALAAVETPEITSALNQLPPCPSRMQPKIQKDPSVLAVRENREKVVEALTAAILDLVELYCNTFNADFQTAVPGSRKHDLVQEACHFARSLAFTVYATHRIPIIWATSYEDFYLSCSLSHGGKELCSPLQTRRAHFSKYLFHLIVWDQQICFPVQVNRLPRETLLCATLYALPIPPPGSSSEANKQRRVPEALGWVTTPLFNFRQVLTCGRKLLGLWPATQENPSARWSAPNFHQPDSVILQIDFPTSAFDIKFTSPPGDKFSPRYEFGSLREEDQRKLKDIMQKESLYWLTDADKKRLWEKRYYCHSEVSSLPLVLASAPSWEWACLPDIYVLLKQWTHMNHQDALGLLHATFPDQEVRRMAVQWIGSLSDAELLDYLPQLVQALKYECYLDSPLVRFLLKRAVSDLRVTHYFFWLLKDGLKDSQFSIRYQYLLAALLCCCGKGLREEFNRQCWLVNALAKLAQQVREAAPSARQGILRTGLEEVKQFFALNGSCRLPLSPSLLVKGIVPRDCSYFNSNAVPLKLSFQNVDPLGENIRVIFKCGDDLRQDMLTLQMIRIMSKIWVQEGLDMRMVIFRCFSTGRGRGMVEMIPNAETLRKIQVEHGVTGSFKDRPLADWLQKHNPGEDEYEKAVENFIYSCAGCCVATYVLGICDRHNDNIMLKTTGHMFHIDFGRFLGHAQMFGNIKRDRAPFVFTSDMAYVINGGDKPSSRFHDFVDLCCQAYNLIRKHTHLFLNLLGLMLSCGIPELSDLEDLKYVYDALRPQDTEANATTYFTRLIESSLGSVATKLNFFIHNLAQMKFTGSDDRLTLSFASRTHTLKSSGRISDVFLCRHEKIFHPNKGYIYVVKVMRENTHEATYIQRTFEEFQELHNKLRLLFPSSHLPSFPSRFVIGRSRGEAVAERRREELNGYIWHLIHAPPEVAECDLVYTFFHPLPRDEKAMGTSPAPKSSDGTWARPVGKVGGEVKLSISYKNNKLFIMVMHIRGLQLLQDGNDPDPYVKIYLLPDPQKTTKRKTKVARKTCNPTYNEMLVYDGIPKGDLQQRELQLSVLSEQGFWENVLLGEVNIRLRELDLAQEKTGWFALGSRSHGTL
Readout Type: IC50 (µM)
Entry rule: numbers only, all in µM.

Summary for this compound, C[C@@H]1C[C@H]1C(=O)N1CCN(c2cnc(C#N)c(-c3cnn(C)c3)n2)C[C@H]1C : IC50 is 40.5
